Target: influenza A virus nucleoprotein (NP), strain A/WSN/33, from infected MDCK cells (Influenza A virus A/WSN/1933 (H1N1), [35S]Met/Cys radiolabel)
Sequence (P15682 whole entry): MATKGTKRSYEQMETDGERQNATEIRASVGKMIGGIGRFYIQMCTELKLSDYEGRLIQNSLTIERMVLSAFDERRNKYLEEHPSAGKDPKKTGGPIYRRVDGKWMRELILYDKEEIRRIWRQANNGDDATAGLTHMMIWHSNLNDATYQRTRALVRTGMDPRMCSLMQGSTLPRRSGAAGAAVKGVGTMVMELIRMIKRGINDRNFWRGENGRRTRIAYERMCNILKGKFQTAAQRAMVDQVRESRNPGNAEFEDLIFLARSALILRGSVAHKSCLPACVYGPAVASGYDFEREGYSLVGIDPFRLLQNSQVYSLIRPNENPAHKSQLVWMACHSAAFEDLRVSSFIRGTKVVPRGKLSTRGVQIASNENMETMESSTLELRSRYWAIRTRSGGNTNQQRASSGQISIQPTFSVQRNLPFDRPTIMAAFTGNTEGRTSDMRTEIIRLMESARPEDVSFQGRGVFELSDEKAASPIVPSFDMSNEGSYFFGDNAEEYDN
Test: pull-down
Details: partners not purified

{"binder": "VHH52 displayed on S. aureus RN4220 (VHH, also called anti-NP-VHH1) VHH: QVQLQESGGGLVQAGGSLRLTCALSERTSTSYAQGWFRQPPGKEREFVASLRTHDGNTHYTDSVKGRFTISRDNAENTLYLQMNSLKTEDTAVYYCAASLGYSGAYASGYDYWGQGTQVTVSS", "binding result": "binds"}
{"binder": "VHH54.1 displayed on S. aureus RN4220 (VHH, also called anti-NP-VHH4) VHH: QVQLVESGGGLVQAGASLRLSCATSGRTLSGYAMGWFRQAPGKERELTAAISWSGISTYYTDSVKGRFTISRDNAKNTVYLQMNSLNSEDTGVYYCVADVGWPLRADRGSWGQGTQVTISS", "binding result": "binds"}
{"binder": "VHH52.1 displayed on S. aureus RN4220 (VHH, also called anti-NP-VHH6) VHH: QLQLVESGGGLVQAGGSLRLSCAASGSTFSNYAMGWFRQAPGKEREFVASIRWIGGSTRYADSVKGRFTTSRDNAKNALYLQMNSLKTEDTAVYYCAASLGYSASYASGYDYWGQGTQVTVSS", "binding result": "binds"}
